Assignment: determine reported NTS1/NTS2 selectivity for the given molecules.
# targetEntity: hNTS2 (Homo sapiens)
# assayExplanation: Competitive radioligand binding assay, 125I-[Tyr3]-NT displacement, 1321N1 cell membranes
# experimentalParameters: ratio of Ki hNTS1 to Ki hNTS2
Numbered stars: 1 amine (or outer) side, 2 acyl side, 3 side chain; on linkers, the order of the positions; unused ones are H or OH. Square brackets hold non-standard residues; d marks the D form. Peptide text beside a SMILES is read from it. X1 = NCCCC[C@H](N)CN([C@@H](CCCCN)C(=O)[*:2])[*:1]; Ala(SiMe3) = C[Si](C)(C)C[C@H](N)C(=O)O; X2 = C[Si]1(C)CC(C(=O)[*:2])N([*:1])C1; Dmt = Cc1cc(O)cc(C)c1C[C@H](N)C(=O)O; Tle = CC(C)(C)[C@H](N)C(=O)O
One number for each entry.

Cc1cc(O)cc(C)c1C[C@H](NC(=O)[C@@H]1CCCN1C(=O)[C@H](CCCCN)NC[C@@H](N)CCCCN)C(=O)N[C@H](C(=O)N[C@@H](CC(C)C)C(=O)O)C(C)(C)C [Compound 16, H-Lysψ[CH2NH]Lys-Pro-Dmt-Tle-Leu-OH] (H-[X1]P[Dmt][Tle]L-OH); 79
CC[C@H](C)[C@H](NC(=O)[C@H](Cc1ccc(O)cc1)NC(=O)C1C[Si](C)(C)CN1C(=O)[C@H](CCCCN)NC(=O)[C@@H](N)CCCCN)C(=O)N[C@@H](C[Si](C)(C)C)C(=O)O (stereo partly drawn) [Compound 7, H-Lys-Lys-Sip-Tyr-Ile-TMSAla-OH] (H-KK[X2]YI[Ala(SiMe3)]-OH); 3.4

// next entry
Value of NTS1/NTS2 selectivity reported for the molecule CC[C@H](C)[C@H](NC(=O)[C@@H](Cc1c[nH]c2ccccc12)NC(=O)[C@@H]1CCCN1C(=O)[C@H](CCCCN)NC[C@@H](N)CCCCN)C(=O)N[C@@H](C[Si](C)(C)C)C(=O)O [Compound 14, H-Lysψ[CH2NH]Lys-Pro-D-Trp-Ile-TMSAla-OH] (H-[X1]P[dW]I[Ala(SiMe3)]-OH) is 16

----------
# targetEntity: hNTS2 (Homo sapiens, UniProt O95665)
# Sequence (O95665 whole entry): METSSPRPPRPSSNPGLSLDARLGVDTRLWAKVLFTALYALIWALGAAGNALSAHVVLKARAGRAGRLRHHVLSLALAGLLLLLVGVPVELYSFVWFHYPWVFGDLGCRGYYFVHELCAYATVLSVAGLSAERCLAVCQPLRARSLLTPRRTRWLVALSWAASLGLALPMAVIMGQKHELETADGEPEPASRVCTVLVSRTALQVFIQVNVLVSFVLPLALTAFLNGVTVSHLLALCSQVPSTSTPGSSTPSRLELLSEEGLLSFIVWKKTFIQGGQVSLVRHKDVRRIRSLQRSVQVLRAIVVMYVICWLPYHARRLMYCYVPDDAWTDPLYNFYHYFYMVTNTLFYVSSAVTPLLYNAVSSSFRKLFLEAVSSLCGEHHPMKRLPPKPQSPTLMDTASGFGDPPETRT
# assayExplanation: Competitive radioligand binding assay, 125I-[Tyr3]-NT displacement, 1321N1 cell membranes
Numbered stars: 1 amine (or outer) side, 2 acyl side, 3 side chain; on linkers, the order of the positions; unused ones are H or OH. Square brackets hold non-standard residues; d marks the D form. Peptide text beside a SMILES is read from it. X1 = NCCCC[C@H](N)CN([C@@H](CCCCN)C(=O)[*:2])[*:1]; Ala(SiMe3) = C[Si](C)(C)C[C@H](N)C(=O)O; X2 = C[Si]1(C)CC(C(=O)[*:2])N([*:1])C1
quantityMeasured: pKi
Numbers only, as −log10 of the molar value.

// below: answered compounds
CC[C@H](C)[C@H](NC(=O)[C@H](Cc1ccc(O)cc1)NC(=O)C1C[Si](C)(C)CN1C(=O)[C@H](CCCCN)NC(=O)[C@@H](N)CCCCN)C(=O)N[C@@H](C[Si](C)(C)C)C(=O)O (stereo partly drawn) [Compound 7, H-Lys-Lys-Sip-Tyr-Ile-TMSAla-OH] (H-KK[X2]YI[Ala(SiMe3)]-OH); 7.80
CC[C@H](C)[C@H](NC(=O)[C@H](Cc1ccc(O)cc1)NC(=O)[C@@H]1CCCN1C(=O)[C@H](CCCCN)NC(=O)[C@@H](N)CCCCN)C(=O)N[C@@H](CC(C)C)C(=O)O [Compound 1, H-Lys-Lys-Pro-Tyr-Ile-Leu-OH]; 8.96

Query compound follows.
According to the records, this compound CC[C@H](C)[C@H](NC(=O)[C@@H](Cc1c[nH]c2ccccc12)NC(=O)[C@@H]1CCCN1C(=O)[C@H](CCCCN)NC[C@@H](N)CCCCN)C(=O)N[C@@H](C[Si](C)(C)C)C(=O)O [Compound 14, H-Lysψ[CH2NH]Lys-Pro-D-Trp-Ile-TMSAla-OH] (H-[X1]P[dW]I[Ala(SiMe3)]-OH) displays pKi of 8.46

Where do these numbers come from? They come from paper PMC7291367.
